# Test system: BT-549 breast
# Assay Notes: NCI tumour cell line growth inhibition, 48 h
Below, each entry is listed alongside its reported TGI.
Give the number; µM is assumed, so skip it.

Field: example entries. Status: answers known.
{"Compound": "CCCCCCCCCCCC[C@@H](O)[C@H]1CC[C@H]([C@H]2CC[C@H]([C@H](O)CC[C@H](O)CCCCCCCC3=C[C@H](C)OC3=O)O2)O1", "TGI (µM)": 1.02}
{"Compound": "O=S(=O)(c1ccccc1)n1c(C(O)c2ccccc2)cc2ccccc21 (stereo not drawn)", "TGI (µM)": 32.2}
{"Compound": "C=C(C(=O)OC)N1C(=O)CC(C)C1=O (stereo not drawn)", "TGI (µM)": 30.9}
{"Compound": "CC(=O)c1c(Nc2cccc(F)c2)[nH]c2c(Cl)cc(Cl)c(Cl)c2c1=O", "TGI (µM)": 8.31}
{"Compound": "COc1ccc(/C=C2\\COc3ccc(O)c(O)c3C2=O)cc1", "TGI (µM)": 4.85}
{"Compound": "Cc1ccc(CN(C)c2ccc(CO)c(Cl)c2)cc1", "TGI (µM)": 37}

The value of TGI recorded for Cc1cc2cn3c4ccc(O)cc4nc(N)c3c2cc1C when tested on BT-549 breast reads 20.4

The value of TGI recorded for O=C(CN(/C=C/C(=O)C(F)(F)F)c1ccc(Cl)cc1)c1ccc(F)cc1 when tested on BT-549 breast reads 35.3

The value of TGI recorded for CCCCCCCCCCCCCCCCCCOP(=O)([O-])OCC[N+](C)(C)C when tested on BT-549 breast reads 5.82

---

Below, each entry is listed alongside its reported TGI.
# System: T-47D breast
# Assay Notes: NCI tumour cell line growth inhibition, 48 h

{"Molecule": "Cc1ccc(C2=Nc3c(N)nc(N)nc3NC(c3cccc(Nc4ccnc5cc(C(F)(F)F)ccc45)c3)C2)cc1 (centres undefined)", "Subject Of Test": "T-47D breast", "TGI": "8.73 µM"}
{"Molecule": "O=C(CN(/C=C/C(=O)C(F)(F)F)c1ccc(Cl)cc1)c1ccc(F)cc1", "Subject Of Test": "T-47D breast", "TGI": "> 100 µM"}
{"Molecule": "COC(=O)C(Cc1ccc(OC)cc1O)NC(=O)OC(C)(C)C (centres undefined)", "Subject Of Test": "T-47D breast", "TGI": "> 100 µM"}

Reported TGI ( C[CH2][Pb]([CH2]C)([CH2]C)[O]C(=O)COC ) = 2.53 µM

Reported TGI ( CC(CCOc1ccc2ccc(=O)oc2c1)C1=CC(=O)C(C)(C)O1 (centres undefined) ) = 6.06 µM

Reported TGI ( Cc1cccc2nc3cccc(C(=O)NCCC[N+](C)(CCCNC(=O)c4cccc5nc6cccc(C)c6nc45)Cc4ccc([N+](=O)[O-])n4C)c3nc12 ) = > 100 µM

---

# Tested on: MCF7 breast
# Assay Notes: NCI tumour cell line growth inhibition, 48 h; in the data active = GI50 below about 0.43 µM; inactive = the rest
Choose one outcome from this list and give only that: yes = active, no = inactive

Completed entries (count: 7):
{"Molecule": "COc1cc(C2CC(c3cccc(Nc4ccncc4)c3)=NN2c2ccccc2)cc(OC)c1OC (stereo not drawn)", "Class Assignment": "no"}
{"Molecule": "NCCCCCn1c2c(c3ccccc3c1=O)C(=O)c1ccccc1-2", "Class Assignment": "yes"}
{"Molecule": "Nc1c(C(=O)Nc2cccc(C(F)(F)F)c2)sc2nc3c(cc12)C(O)CCC3 (stereo not drawn)", "Class Assignment": "no"}
{"Molecule": "c1ccc2nc(N/N=C3\\CCCCC3C3CCCCC3)ccc2c1 (stereo not drawn)", "Class Assignment": "no"}
{"Molecule": "CNCCCNc1nc2ccccc2c2c(=O)c3cc(F)ccc3sc12", "Class Assignment": "no"}
{"Molecule": "Cc1nc2cc(-c3nn(C(C)C)c4ncnc(N)c34)ccc2o1", "Class Assignment": "yes"}
{"Molecule": "Cc1ccc(CN(C)c2ccc(CO)c(Cl)c2)cc1", "Class Assignment": "no"}

With those in mind, consider the next molecule.
Recorded test outcome, item CC(C)Oc1ccc(-c2nn([C@@H](C)c3oc4ccc(F)cc4c(=O)c3-c3cccc(F)c3)c3ncnc(N)c23)cc1F
no
